Cited source for all entries: paper PMC10786891

# pKd per record follows
assay_system: T1, EsCas13d, nuclease-dead (Eubacterium siraeum, UniProt B0MS50, R295A;H300A;R849A;H854A)
T1 sequence: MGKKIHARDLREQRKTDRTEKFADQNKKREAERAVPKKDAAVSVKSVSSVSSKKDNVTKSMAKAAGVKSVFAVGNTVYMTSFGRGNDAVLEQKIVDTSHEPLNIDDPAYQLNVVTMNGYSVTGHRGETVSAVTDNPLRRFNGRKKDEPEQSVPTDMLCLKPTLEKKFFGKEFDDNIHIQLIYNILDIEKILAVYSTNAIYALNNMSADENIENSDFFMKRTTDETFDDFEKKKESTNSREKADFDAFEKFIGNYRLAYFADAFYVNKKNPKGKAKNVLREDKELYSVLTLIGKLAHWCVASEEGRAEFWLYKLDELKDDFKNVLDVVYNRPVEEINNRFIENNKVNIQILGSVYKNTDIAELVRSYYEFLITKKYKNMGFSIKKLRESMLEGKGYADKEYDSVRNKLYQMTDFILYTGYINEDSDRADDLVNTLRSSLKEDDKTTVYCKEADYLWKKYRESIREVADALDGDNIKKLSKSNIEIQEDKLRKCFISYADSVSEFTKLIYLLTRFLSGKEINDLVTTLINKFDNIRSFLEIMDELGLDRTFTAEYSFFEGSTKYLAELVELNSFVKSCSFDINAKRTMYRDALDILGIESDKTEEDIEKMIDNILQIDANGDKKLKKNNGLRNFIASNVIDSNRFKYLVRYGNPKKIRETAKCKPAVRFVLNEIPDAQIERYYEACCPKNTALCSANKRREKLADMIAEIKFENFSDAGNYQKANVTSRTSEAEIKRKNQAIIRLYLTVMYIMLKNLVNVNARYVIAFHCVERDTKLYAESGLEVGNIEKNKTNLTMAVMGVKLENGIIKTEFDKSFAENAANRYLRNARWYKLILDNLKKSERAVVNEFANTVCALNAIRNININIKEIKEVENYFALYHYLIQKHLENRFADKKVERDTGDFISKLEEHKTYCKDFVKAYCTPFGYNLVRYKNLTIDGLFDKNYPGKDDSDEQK
assay: crRNA (strand 1, pre-loaded); Mg2+; 40 mM Tris-HCl pH 7.5, 150 mM NaCl, 6 mM MgCl2, 1 mM DTT, 0.1% Tween-20, 0.2 mg/ml BSA; 25 C; 10 min per concentration, then washed
assay_context: tags: His6-TwinStrep-SUMO cleaved; N-terminal SNAP kept (SNAP-Surface 488); label: 3' end held by stalled T7 RNA polymerase
pKd: −log10 of the molar value.
reported_metric: pKd

- target 1 MT 5'PFS UCA 3'PFS UAU (mixed) RNA 1: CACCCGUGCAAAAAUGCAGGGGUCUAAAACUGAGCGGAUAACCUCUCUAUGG RNA 2: GGGAAUGGAUCCACAUCUACGAAUUCUCACCAUAGAGAGGUUAUCCGCUCAUAUAGAUCGGAAGAGCACACGU: 7.94
- target 1 A1G,C21A (mixed) RNA 1: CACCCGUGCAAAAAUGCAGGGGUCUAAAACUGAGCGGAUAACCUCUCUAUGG RNA 2: GGGAAUGGAUCCACAUCUACGAAUUCGUACAAUAGAGAGGUUAUCCGCUCGCCGAGAUCGGAAGAGCACACGU: 7.57
